The following compounds are listed with their measured HC50 values.
Assay info: Toxicity in sheep erythrocyte assessed as hemolysis
Assay type: cell-based, Ovis aries
Experimental setup: sheep erythrocytes
Square brackets hold non-standard residues; d marks the D form. Peptide text beside a SMILES is read from it. Lys(Me3) = C[N+](C)(C)CCCC[C@H](N)C(=O)O

{"columns": ["Compound", "HC50 / µM"],
 "data": [
  ["CC[C@H](C)[C@H](NC(=O)[C@H](CCCC[N+](C)(C)C)NC(=O)[C@H](CCCCN)NC(=O)[C@H](Cc1ccccc1)NC(=O)[C@H](CC(C)C)NC(=O)[C@H](CCCCN)NC(=O)[C@H](Cc1c[nH]c2ccccc12)NC(=O)[C@@H](N)CCCCN)C(=O)NCC(=O)N[C@@H](C)C(=O)N[C@H](C(=O)N[C@@H](CC(C)C)C(=O)N[C@@H](CCCCN)C(=O)N[C@H](C(=O)N[C@@H](CC(C)C)C(N)=O)C(C)C)C(C)C.[Cl-] (H-KWKLFK[Lys(Me3)]IGAVLKVL-NH2)", 164],
  ["CC[C@H](C)[C@H](NC(=O)[C@H](CCCC[N+](C)(C)C)NC(=O)[C@H](CCCC[N+](C)(C)C)NC(=O)[C@H](Cc1ccccc1)NC(=O)[C@H](CC(C)C)NC(=O)[C@H](CCCCN)NC(=O)[C@H](Cc1c[nH]c2ccccc12)NC(=O)[C@@H](N)CCCCN)C(=O)NCC(=O)N[C@@H](C)C(=O)N[C@H](C(=O)N[C@@H](CC(C)C)C(=O)N[C@@H](CCCCN)C(=O)N[C@H](C(=O)N[C@@H](CC(C)C)C(N)=O)C(C)C)C(C)C.[Cl-].[Cl-] (H-KWKLF[Lys(Me3)][Lys(Me3)]IGAVLKVL-NH2)", 134]
]}

====

The following compounds are listed with their measured HC50 values.
Assay info: Toxicity in sheep erythrocyte assessed as hemolysis
Format: cell-based, Ovis aries
Experimental setup: sheep erythrocytes
Square brackets hold non-standard residues; d marks the D form. Peptide text beside a SMILES is read from it. Lys(Me3) = C[N+](C)(C)CCCC[C@H](N)C(=O)O
Property measured: HC50 (µM)

{"columns": ["Compound", "Property measured", "Unit", "Measurement"],
 "data": [
  ["CC[C@H](C)[C@H](NC(=O)[C@H](CCCCN)NC(=O)[C@H](CCCC[N+](C)(C)C)NC(=O)[C@H](Cc1ccccc1)NC(=O)[C@H](CC(C)C)NC(=O)[C@H](CCCCN)NC(=O)[C@H](Cc1c[nH]c2ccccc12)NC(=O)[C@@H](N)CCCCN)C(=O)NCC(=O)N[C@@H](C)C(=O)N[C@H](C(=O)N[C@@H](CC(C)C)C(=O)N[C@@H](CCCCN)C(=O)N[C@H](C(=O)N[C@@H](CC(C)C)C(N)=O)C(C)C)C(C)C.[Cl-] (H-KWKLF[Lys(Me3)]KIGAVLKVL-NH2)", "HC50", "µM", 158],
  ["CC[C@H](C)[C@H](NC(=O)[C@H](CCCCN)NC(=O)[C@H](CCCC[N+](C)(C)C)NC(=O)[C@H](Cc1ccccc1)NC(=O)[C@H](CC(C)C)NC(=O)[C@H](CCCC[N+](C)(C)C)NC(=O)[C@H](Cc1c[nH]c2ccccc12)NC(=O)[C@@H](N)CCCCN)C(=O)NCC(=O)N[C@@H](C)C(=O)N[C@H](C(=O)N[C@@H](CC(C)C)C(=O)N[C@@H](CCCCN)C(=O)N[C@H](C(=O)N[C@@H](CC(C)C)C(N)=O)C(C)C)C(C)C.[Cl-].[Cl-] (H-KW[Lys(Me3)]LF[Lys(Me3)]KIGAVLKVL-NH2)", "HC50", "µM", 117],
  ["CC[C@H](C)[C@H](NC(=O)[C@H](CCCCN)NC(=O)[C@H](CCCCN)NC(=O)[C@H](Cc1ccccc1)NC(=O)[C@H](CC(C)C)NC(=O)[C@H](CCCC[N+](C)(C)C)NC(=O)[C@H](Cc1c[nH]c2ccccc12)NC(=O)[C@@H](N)CCCCN)C(=O)NCC(=O)N[C@@H](C)C(=O)N[C@H](C(=O)N[C@@H](CC(C)C)C(=O)N[C@@H](CCCCN)C(=O)N[C@H](C(=O)N[C@@H](CC(C)C)C(N)=O)C(C)C)C(C)C.[Cl-] (H-KW[Lys(Me3)]LFKKIGAVLKVL-NH2)", "HC50", "µM", 85.6],
  ["CC[C@H](C)[C@H](NC(=O)[C@H](CCCCN)NC(=O)[C@H](CCCCN)NC(=O)[C@H](Cc1ccccc1)NC(=O)[C@H](CC(C)C)NC(=O)[C@H](CCCC[N+](C)(C)C)NC(=O)[C@H](Cc1c[nH]c2ccccc12)NC(=O)[C@@H](N)CCCC[N+](C)(C)C)C(=O)NCC(=O)N[C@@H](C)C(=O)N[C@H](C(=O)N[C@@H](CC(C)C)C(=O)N[C@@H](CCCCN)C(=O)N[C@H](C(=O)N[C@@H](CC(C)C)C(N)=O)C(C)C)C(C)C.[Cl-].[Cl-] (H-[Lys(Me3)]W[Lys(Me3)]LFKKIGAVLKVL-NH2)", "HC50", "µM", 105]
]}

Reference source for all entries: ChEMBL document CHEMBL1212840
